target: 5-hydroxytryptamine receptor 1A (Rattus norvegicus); test: Binding affinity towards rat 5-hydroxytryptamine 1A receptor using [3H]8-OH-DPAT radioligand.
Sequence (P19327 whole entry): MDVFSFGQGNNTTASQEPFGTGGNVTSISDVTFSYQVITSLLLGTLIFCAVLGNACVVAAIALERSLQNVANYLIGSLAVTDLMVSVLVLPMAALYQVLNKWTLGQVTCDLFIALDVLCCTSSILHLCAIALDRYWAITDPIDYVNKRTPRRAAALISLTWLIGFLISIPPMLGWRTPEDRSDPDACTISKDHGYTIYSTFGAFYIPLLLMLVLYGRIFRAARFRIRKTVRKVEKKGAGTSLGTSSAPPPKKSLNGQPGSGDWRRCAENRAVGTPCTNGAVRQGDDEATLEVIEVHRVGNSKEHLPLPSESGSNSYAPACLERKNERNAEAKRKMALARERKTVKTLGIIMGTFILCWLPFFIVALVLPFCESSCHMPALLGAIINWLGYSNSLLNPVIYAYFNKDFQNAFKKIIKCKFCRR
Measured endpoint: Ki

Study these solved cases before continuing.
Compound	Ki
O=C1C2CCCCN2C(=O)N1CN1CCN(c2ccc([N+](=O)[O-])cc2)CC1 (centres undefined)	> 1 µM
O=C1C2CCCCN2C(=O)N1CCN1CCN(c2ccccc2)CC1 (centres undefined)	> 1 µM

Ask: Param item = O=C1C2CCCN2C(=O)N1CCCN1CCN(c2ccc([N+](=O)[O-])cc2)CC1 (centres undefined) ; retrieve measured Ki.
Reply: > 10 µM

Ask: Report Ki for O=C1C2CCCN2C(=O)N1CCN1CCN(c2ccc([N+](=O)[O-])cc2)CC1 (centres undefined) please.
Reply: > 10 µM

----------
target: UniProt P61169; experiment: Binding affinity towards dopamine receptor D2 using [3H]-raclopride radioligand.
pKi: −log10 of the molar value.
// reported pKi per item

Known results for compounds:
Compound	pKi
O=C1C2CCCCN2C(=O)N1CCCCN1CCN(c2ccc(F)cc2)CC1 (stereo unspecified)	6.21
COc1ccccc1N1CCN(CCCN2C(=O)C3CCCN3C2=O)CC1 (stereo unspecified)	< 6.00
O=C1C2CCCN2C(=O)N1CCCCN1CCN(c2ccc(F)cc2)CC1 (stereo unspecified)	< 6.00
O=C1C2CCCN2C(=O)N1CCCCN1CCN(c2ccc([N+](=O)[O-])cc2)CC1 (stereo unspecified)	< 6.00
COc1ccccc1N1CCN(CN2C(=O)C3CCCCN3C2=O)CC1 (stereo unspecified)	< 5.00

With those in mind, consider the next compound.
Ask: Which pKi is listed for COc1ccccc1N1CCN(CCCN2C(=O)C3CCCCN3C2=O)CC1 (stereo unspecified) ?
Reply: < 6.00

----------
molecular target: D(2) dopamine receptor (Rattus norvegicus); experiment: Binding affinity towards dopamine receptor D2 using [3H]-raclopride radioligand.
pKi: −log10 of the molar value.
Measured endpoint: pKi

Study these solved cases before continuing.
Compound	pKi
O=C1C2CCCN2C(=O)N1CCCN1CCN(c2cccc(Cl)c2)CC1 (stereo not given)	< 6.00
O=C1C2CCCCN2C(=O)N1CCN1CCN(c2ccc(F)cc2)CC1 (stereo not given)	< 5.00
O=C1C2CCCCN2C(=O)N1CCCCN1CCN(c2cccc(Cl)c2)CC1 (stereo not given)	6.89
O=C1C2CCCN2C(=O)N1CCN1CCN(c2cccc(Cl)c2)CC1 (stereo not given)	< 6.00
O=C1C2CCCCN2C(=O)N1CCCCN1CCN(c2ccccc2)CC1 (stereo not given)	< 6.00

Ask: Please look up its pKi: COc1ccccc1N1CCN(CCN2C(=O)C3CCCN3C2=O)CC1 (stereo not given)
Reply: 6.44

Ask: What value of measured pKi is listed for O=C1C2CCCN2C(=O)N1CCN1CCN(c2ccc([N+](=O)[O-])cc2)CC1 (stereo not given) ?
Reply: < 5.00

----------
molecular target: Adrenergic receptor alpha-1 (Rattus norvegicus, UniProt P15823+P23944+P43140); experiment: Binding affinity towards alpha-1 adrenergic receptor using [3H]prazosin radioligand.; format: protein assay
Measured endpoint: Ki

Examples from the recorded data:
Molecule	Reported value
O=C1C2CCCCN2C(=O)N1CN1CCN(c2ccc([N+](=O)[O-])cc2)CC1 (centres undefined)	> 10000 nM
O=C1C2CCCN2C(=O)N1CN1CCN(c2cccc(C(F)(F)F)c2)CC1 (centres undefined)	> 1000 nM
O=C1C2CCCN2C(=O)N1CCN1CCN(c2ccc([N+](=O)[O-])cc2)CC1 (centres undefined)	> 10000 nM
O=C1C2CCCCN2C(=O)N1CCN1CCN(c2cccc(C(F)(F)F)c2)CC1 (centres undefined)	> 1000 nM
O=C1C2CCCCN2C(=O)N1CCN1CCN(c2ccc(F)cc2)CC1 (centres undefined)	> 1000 nM
O=C1C2CCCN2C(=O)N1CCN1CCN(c2cccc(C(F)(F)F)c2)CC1 (centres undefined)	> 1000 nM
O=C1C2CCCCN2C(=O)N1CN1CCN(c2ccccc2)CC1 (centres undefined)	> 1000 nM
O=C1C2CCCCN2C(=O)N1CCN1CCN(c2ccccc2)CC1 (centres undefined)	> 1000 nM

Could you now look at the following molecule, please?
Ask: If you can, please state the reported Ki value of O=C1C2CCCCN2C(=O)N1CCN1CCN(c2ccc([N+](=O)[O-])cc2)CC1 (centres undefined) .
Reply: > 10000 nM

----------
biological target: D(2) dopamine receptor (Rattus norvegicus, UniProt P61169); assay: Binding affinity towards dopamine receptor D2 using [3H]-raclopride radioligand.
Sequence (P61169 whole entry): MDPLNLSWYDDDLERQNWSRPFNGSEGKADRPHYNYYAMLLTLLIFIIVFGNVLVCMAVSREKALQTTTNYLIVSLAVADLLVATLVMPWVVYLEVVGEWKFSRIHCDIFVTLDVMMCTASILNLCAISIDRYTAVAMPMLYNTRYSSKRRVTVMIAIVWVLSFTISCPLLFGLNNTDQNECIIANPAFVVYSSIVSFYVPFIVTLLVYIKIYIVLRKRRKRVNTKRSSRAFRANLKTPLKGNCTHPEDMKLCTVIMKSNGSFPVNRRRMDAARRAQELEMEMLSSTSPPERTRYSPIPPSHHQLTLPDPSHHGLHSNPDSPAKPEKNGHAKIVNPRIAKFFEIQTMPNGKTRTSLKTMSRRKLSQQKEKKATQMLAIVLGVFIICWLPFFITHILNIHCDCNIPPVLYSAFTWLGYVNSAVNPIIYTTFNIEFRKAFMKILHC
Measured Ki accompanies every entry in the list below.

Molecule	Ki
O=C1C2CCCN2C(=O)N1CCCN1CCN(c2cccc(C(F)(F)F)c2)CC1 (stereo not drawn)	> 1 µM
O=C1C2CCCCN2C(=O)N1CCN1CCN(c2cccc(Cl)c2)CC1 (stereo not drawn)	> 1 µM
O=C1C2CCCN2C(=O)N1CN1CCN(c2cccc(Cl)c2)CC1 (stereo not drawn)	> 10 µM

Ask: For the record O=C1C2CCCN2C(=O)N1CCN1CCN(c2cccc(C(F)(F)F)c2)CC1 (stereo not drawn) , what value of Ki is listed for D(2) dopamine receptor (Rattus norvegicus, UniProt P61169)?
Reply: > 1 µM

Ask: Give recorded Ki with D(2) dopamine receptor (Rattus norvegicus, UniProt P61169) for the following molecule: COc1ccccc1N1CCN(CCCCN2C(=O)C3CCCCN3C2=O)CC1 (stereo not drawn)
Reply: > 1 µM

Ask: Find the measured Ki: item O=C1C2CCCCN2C(=O)N1CCCN1CCN(c2cccc(Cl)c2)CC1 (stereo not drawn) , target or system D(2) dopamine receptor (Rattus norvegicus, UniProt P61169).
Reply: > 1 µM

Ask: // map O=C1C2CCCCN2C(=O)N1CCCCN1CCN(c2cccc(C(F)(F)F)c2)CC1 (stereo not drawn) to recorded Ki (system: D(2) dopamine receptor (Rattus norvegicus, UniProt P61169))
Reply: 0.0906 µM

Ask: So what Ki did O=C1C2CCCCN2C(=O)N1CN1CCN(c2ccc(F)cc2)CC1 (stereo not drawn) get with D(2) dopamine receptor (Rattus norvegicus, UniProt P61169)?
Reply: > 10 µM
